Hi there, I'd appreciate the recorded Bioactivity relative to TL1A-0002 for every entry that follows.
- targetUnderTest: T1, recombinant human TL1A (human, UniProt O95150 71-251)
- T1 construct: The ELISA method says only 'recombinant TL1A' coated on plates; homotrimeric cytokine; also called TNFSF15; recombinant TL1A
- T1 chain: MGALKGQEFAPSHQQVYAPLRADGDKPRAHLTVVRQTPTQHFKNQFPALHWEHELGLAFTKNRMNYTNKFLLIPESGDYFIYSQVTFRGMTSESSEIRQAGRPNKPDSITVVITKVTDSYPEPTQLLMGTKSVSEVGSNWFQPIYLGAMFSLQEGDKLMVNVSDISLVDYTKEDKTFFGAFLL
- experimentalProtocol: competition ELISA on coated recombinant TL1A; competitor biotinylated TL1A-0002
Report only the number, with the unit fold understood.

# Bioactivity relative to TL1A-0002 of TL1A-0253 (antibody, V domains shown, IgG1 effector-minimized/kappa) VH: QVQLVQSGAEVKKPGASVKVSCKASGYDFTYYGISWVRQAPGQGLEWMGWISTYNTNTHYAPSLQGRVTMTTDTSTSTAYMELRSLRSDDTAVYYCARESYYGSGAHRGGMDVWGQGTTVTVSS VL: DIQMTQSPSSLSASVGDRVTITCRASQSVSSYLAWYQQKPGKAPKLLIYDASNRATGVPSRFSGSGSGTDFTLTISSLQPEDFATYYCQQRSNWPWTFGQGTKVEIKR = 2.7

# Bioactivity relative to TL1A-0002 of TL1A-0267 (antibody, human IgG1, kappa, V domains shown, human IgG1 effector-function-minimized / human kappa) VH: QVQLVQSGAEVKKPGASVKVSCKASGYDYTYYGISWVRQAPGQGLEWMGWISTYNTNTHYAPSLQGRVTMTTDTSTSTAYMELRSLRSDDTAVYYCARESYYGSGAHRGGMDVWGQGTTVTVSS VL: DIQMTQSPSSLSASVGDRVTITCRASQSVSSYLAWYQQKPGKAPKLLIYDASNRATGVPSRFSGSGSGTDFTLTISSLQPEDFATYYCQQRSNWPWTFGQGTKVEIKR = 1.3

# Bioactivity relative to TL1A-0002 of TL1A-0305 (antibody, human IgG1, kappa, V domains shown, human IgG1 effector-function-minimized / human kappa) VH: QVQLVQSGAEVKKPGASVKVSCKASGYDFTYYGIGWVRQAPGQGLEWMGWISTYNTGTHYAQKLQGRVTMTTDTSTSTAYMELRSLRSDDTAVYYCARESYYGSGAHRGGMDVWGQGTTVTVSS VL: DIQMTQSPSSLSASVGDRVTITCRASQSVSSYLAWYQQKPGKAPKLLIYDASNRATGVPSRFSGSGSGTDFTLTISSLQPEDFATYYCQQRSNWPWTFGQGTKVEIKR = 2.9

# Bioactivity relative to TL1A-0002 of TL1A-0301 (antibody, V domains shown, IgG1 effector-minimized/kappa) VH: QVQLVQSGAEVKKPGASVKVSCKASGYDFTYYGIGWVRQAPGQGLEWMGWISTYNDNTHYAQKLQGRVTMTTDTSTSTAYMELRSLRSDDTAVYYCARESYYGSGAHRGGMDVWGQGTTVTVSS VL: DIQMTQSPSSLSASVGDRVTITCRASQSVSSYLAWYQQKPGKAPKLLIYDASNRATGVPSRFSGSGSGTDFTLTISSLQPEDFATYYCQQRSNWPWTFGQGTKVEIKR = 4.9

# Bioactivity relative to TL1A-0002 of TL1A-0275 (antibody, human IgG1, kappa, V domains shown, human IgG1 effector-function-minimized / human kappa) VH: QVQLVQSGAEVKKPGASVKVSCKASGYDFSYYGISWVRQAPGQGLEWMGWISTYNTGTHYAPSLQGRVTMTTDTSTSTAYMELRSLRSDDTAVYYCARESYYGSGAHRGGMDVWGQGTTVTVSS VL: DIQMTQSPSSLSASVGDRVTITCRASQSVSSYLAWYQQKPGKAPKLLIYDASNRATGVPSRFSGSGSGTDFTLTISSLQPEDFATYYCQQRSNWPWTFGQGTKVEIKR = 1.8

# Bioactivity relative to TL1A-0002 of TL1A-0276 (antibody, human IgG1, kappa, V domains shown, human IgG1 effector-function-minimized / human kappa) VH: QVQLVQSGAEVKKPGASVKVSCKASGYDFSYYGISWVRQAPGQGLEWMGWISTYNTGTHYAQKLQGRVTMTTDTSTSTAYMELRSLRSDDTAVYYCARESYYGSGAFRGGMDVWGQGTTVTVSS VL: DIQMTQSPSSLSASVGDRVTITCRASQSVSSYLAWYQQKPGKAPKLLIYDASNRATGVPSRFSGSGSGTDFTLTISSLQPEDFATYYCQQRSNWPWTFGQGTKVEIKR = 2.1

# Bioactivity relative to TL1A-0002 of TL1A-0269 (antibody, V domains shown, IgG1 effector-minimized/kappa) VH: QVQLVQSGAEVKKPGASVKVSCKASGYDYTYYGISWVRQAPGQGLEWMGWISTYGGNTHYAPSLQGRVTMTTDTSTSTAYMELRSLRSDDTAVYYCARESYYGSGAHRGGMDVWGQGTTVTVSS VL: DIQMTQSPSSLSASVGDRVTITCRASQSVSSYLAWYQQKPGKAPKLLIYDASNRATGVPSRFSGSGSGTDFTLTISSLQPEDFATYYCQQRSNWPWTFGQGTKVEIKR = 7.5

# Bioactivity relative to TL1A-0002 of TL1A-0290 (antibody, V domains shown, IgG1 effector-minimized/kappa) VH: QVQLVQSGAEVKKPGASVKVSCKASGYDFTYYGVSWVRQAPGQGLEWMGWISTYNTGTHYAQKLQGRVTMTTDTSTSTAYMELRSLRSDDTAVYYCARESYYGSGAFRGGMDVWGQGTTVTVSS VL: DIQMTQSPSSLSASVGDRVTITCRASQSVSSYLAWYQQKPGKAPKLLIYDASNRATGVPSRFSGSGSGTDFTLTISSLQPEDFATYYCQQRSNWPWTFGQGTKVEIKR = 4.2

# Bioactivity relative to TL1A-0002 of TL1A-0302 (antibody, V domains shown, IgG1 effector-minimized/kappa) VH: QVQLVQSGAEVKKPGASVKVSCKASGYDFTYYGIGWVRQAPGQGLEWMGWISTYNTGTHYAPSLQGRVTMTTDTSTSTAYMELRSLRSDDTAVYYCARESYYGSGAFRGGMDVWGQGTTVTVSS VL: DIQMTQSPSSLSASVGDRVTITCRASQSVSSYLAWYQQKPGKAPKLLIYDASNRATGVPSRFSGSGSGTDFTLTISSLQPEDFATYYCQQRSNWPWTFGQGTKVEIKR = 4

# Bioactivity relative to TL1A-0002 of TL1A-0242 (antibody, V domains shown, IgG1 effector-minimized/kappa) VH: QVQLVQSGAEVKKPGASVKVSCKASGYDFTYYGISWVRQAPGQGLEWMGWISTYNDNTHYAPSLQGRVTMTTDTSTSTAYMELRSLRSDDTAVYYCARESYYGSGAFRGGMDVWGQGTTVTVSS VL: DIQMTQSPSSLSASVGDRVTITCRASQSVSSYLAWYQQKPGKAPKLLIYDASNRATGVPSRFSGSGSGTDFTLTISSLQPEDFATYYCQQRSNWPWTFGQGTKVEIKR = 3.2
